subject.of.test: T1, VV B5 monomer protein (Wyeth Vaccinia strain B5 with C-terminal AVI tag and HIS6 tag) (Vaccinia virus, Wyeth strain, UniProt O57254 18-279)
T1 construct: also called B5 protein; VV B5 protein
test: BLI (Octet), antibody on AHC sensor, B5 monomer analyte
In this section, each of the binders is paired with its reported pKd.
Just the number, please; pKd means minus log10 of the concentration in mol/L.

Consider the reported pKd for these binders:
{"binder": "A048-H1L2 (antibody, V domains shown) VH: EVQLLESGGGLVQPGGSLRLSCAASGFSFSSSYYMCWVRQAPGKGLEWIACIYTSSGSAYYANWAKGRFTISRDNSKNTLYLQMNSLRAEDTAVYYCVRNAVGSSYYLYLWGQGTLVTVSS VL: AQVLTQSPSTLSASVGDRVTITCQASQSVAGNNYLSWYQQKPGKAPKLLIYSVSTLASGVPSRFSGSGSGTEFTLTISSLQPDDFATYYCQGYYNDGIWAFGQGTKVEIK", "observed.measurement": 8.01}
{"binder": "A048-H4L1 (antibody, V domains shown) VH: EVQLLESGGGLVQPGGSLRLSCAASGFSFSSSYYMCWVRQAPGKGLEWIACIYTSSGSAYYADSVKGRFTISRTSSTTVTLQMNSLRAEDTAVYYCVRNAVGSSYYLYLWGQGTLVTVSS VL: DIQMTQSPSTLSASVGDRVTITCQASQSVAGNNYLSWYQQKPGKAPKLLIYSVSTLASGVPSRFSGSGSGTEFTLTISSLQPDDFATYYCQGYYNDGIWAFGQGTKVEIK", "observed.measurement": 8.17}
{"binder": "A048-H5L5 (antibody, V domains shown) VH: QVTLKESGPVLVKPTETLTLTCTASGFSFSSSYYMCWVRQPPGKALEWIACIYTSSGSAYYANWAKGRFTISRDTSKSQVVLTMTNMDPVDTATYFCVRNAVGSSYYLYLWGQGTLVTVSS VL: EQVLTQSPATLSLSPGERATLSCQASQSVAGNNYLSWYQQKPGQAPRLLIYSVSTLASGIPARFSGSGSGTDFTLTISSLEPEDFAVYYCQGYYNDGIWAFGQGTKLEIK", "observed.measurement": 8.07}

Reported pKd ( A048 parental (antibody, V domains shown, also called A048 rabbit parental antibody; A048 parental anti-B5 hIgG1) VH: QEQLEESGGGLVKPEGSLTLTCTASGFSFSSSYYMCWVRQAPGRGLEWIACIYTSSGSAYYANWAKGRFTISRTSSTTVTLQMTRLTAADTATYFCVRNAVGSSYYLYLWGPGTLVTVSS VL: AQVLTQTPSPVSAAVGGTVTISCQASQSVAGNNYLSWYQQKPGQPPNLLIYSVSTLASGVPSRFKGSGSGTQFTLTISDLECDDAATYYCQGYYNDGIWAFGGGTEVVVK ) = 8.02

Value of pKd reported for the binder A048-H3L2 (antibody, V domains shown) VH: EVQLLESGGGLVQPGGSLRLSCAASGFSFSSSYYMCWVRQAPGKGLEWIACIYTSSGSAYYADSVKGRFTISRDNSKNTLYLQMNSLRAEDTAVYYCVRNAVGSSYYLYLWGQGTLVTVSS VL: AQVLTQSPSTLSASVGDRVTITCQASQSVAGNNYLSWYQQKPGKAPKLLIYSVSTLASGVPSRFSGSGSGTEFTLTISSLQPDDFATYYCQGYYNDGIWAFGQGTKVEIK is 8.42

Record A048-H3L4 (antibody, V domains shown) VH: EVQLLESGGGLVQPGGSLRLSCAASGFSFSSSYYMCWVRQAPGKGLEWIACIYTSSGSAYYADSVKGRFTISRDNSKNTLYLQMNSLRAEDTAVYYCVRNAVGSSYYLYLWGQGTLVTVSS VL: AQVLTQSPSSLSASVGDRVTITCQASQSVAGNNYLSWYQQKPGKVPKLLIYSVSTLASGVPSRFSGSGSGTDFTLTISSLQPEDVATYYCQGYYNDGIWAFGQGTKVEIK , field pKd: 8.07
